- Target Of Assay: Ba/F3 De119/T790M/C797S EGFR triple mutant cell line (Homo sapiens, UniProt P00533, T790M/C797S, cells depend on it, form not given)
- Sequence (P00533 with tags, fused parts or gaps DEL746-750/T790M/C797S, form open): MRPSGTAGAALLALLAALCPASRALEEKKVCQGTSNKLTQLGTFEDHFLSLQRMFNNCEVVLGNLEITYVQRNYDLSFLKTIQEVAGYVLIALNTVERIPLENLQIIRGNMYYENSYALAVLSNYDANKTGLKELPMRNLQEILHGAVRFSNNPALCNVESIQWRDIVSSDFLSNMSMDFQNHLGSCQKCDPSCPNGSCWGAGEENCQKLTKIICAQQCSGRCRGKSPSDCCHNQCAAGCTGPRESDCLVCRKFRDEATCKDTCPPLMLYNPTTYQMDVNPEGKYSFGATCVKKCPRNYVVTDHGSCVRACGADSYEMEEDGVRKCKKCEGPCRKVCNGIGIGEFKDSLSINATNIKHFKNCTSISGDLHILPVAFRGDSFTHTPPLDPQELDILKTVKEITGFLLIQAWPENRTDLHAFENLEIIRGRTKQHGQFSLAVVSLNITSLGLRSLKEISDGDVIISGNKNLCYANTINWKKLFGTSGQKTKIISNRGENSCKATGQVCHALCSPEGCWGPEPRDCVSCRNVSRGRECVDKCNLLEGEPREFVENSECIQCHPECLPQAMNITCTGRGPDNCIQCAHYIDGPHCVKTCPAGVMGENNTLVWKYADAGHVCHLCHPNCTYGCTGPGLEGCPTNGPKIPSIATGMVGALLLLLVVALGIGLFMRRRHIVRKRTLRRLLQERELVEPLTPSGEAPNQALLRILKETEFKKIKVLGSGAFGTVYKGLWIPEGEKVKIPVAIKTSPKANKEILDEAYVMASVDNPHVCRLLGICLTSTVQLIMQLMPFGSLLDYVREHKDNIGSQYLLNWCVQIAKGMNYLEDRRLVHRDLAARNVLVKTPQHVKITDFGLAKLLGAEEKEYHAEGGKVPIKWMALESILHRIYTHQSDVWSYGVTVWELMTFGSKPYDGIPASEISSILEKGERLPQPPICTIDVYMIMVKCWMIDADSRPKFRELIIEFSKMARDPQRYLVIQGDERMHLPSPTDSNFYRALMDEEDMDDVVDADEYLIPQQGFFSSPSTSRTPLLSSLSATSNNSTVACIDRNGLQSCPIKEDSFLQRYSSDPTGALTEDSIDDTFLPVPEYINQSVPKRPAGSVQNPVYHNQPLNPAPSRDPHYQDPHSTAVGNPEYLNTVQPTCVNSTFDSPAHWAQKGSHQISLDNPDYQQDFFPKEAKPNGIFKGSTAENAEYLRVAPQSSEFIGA
- Protocol Details: Cell proliferation inhibition experiment (CellTiter-Glo), Ba/F3 De119/T790M/C797S
- Type: cell-based
- Experimental Context: Ba/F3 Del19/T790M/C797S EGFR triple mutant cells, 72 hours, Cell Titer-Glo; read-out: Ba/F3 (Del19/T790M/C797S) IC50
- Experimental: 3) 30 nL of gradient diluted compound was transferred into the 384-well experimental plate using Echo 550 (Labcyte) at a DMSO final concentration of 0.1%, and the culture plate was incubated in a cell incubator for 72 hours (37° C., 5% CO2). 4) 30 μL of Cell Titer-Glo reagent was added to each well and left for 30 minutes at room temperature and protected from light. 5) Envision microplate reader (PerkinElmer) detected chemiluminescence signals. […]
Endpoint: GI50 (nM)

> print(dat)
                                    compound  reported.result
 1  COc1cc(N2CCC3(CCN(CCF)CC3)CC2)c(-c2cnn(C)c2)cc1Nc1ncc(Br)c(Nc2ccc3nccnc3c2P(C)(C)=O)n1             0.64
 2  COc1cc(N2CCCN(C)CC2)c(-c2cnn(C)c2)cc1Nc1ncc(Br)c(Nc2ccc3nccnc3c2P(C)(C)=O)n1             6.32
 3  COc1cc(N2CCN(C3COC3)CC2)c(-c2cnn(C)c2)cc1Nc1ncc(Br)c(Nc2ccc3nccnc3c2P(C)(C)=O)n1             1.57
 4  COc1cc(N2CCOCC2)c(-c2cnn(C)c2)cc1Nc1ncc(Br)c(Nc2ccc3nccnc3c2P(C)(C)=O)n1             0.58
 5  COc1cc(S(=O)(=O)N(C)C)c(-c2cnn(C)c2)cc1Nc1ncc(Br)c(Nc2ccc3nccnc3c2P(C)(C)=O)n1             93.2
 6  COc1cc(N2CCC(C)(OC)CC2)c(-c2cnn(C)c2)cc1Nc1ncc(Br)c(Nc2ccc3nccnc3c2P(C)(C)=O)n1             0.61
 7  COc1cc(C2CCOCC2)c(-c2cnn(C)c2)cc1Nc1ncc(Br)c(Nc2ccc3nccnc3c2P(C)(C)=O)n1             5.91
 8  COc1cc(N2CC3CC2CN3C)c(-c2cnn(C)c2)cc1Nc1ncc(Br)c(Nc2ccc3nccnc3c2P(C)(C)=O)n1 (stereo not drawn)             83.4
 9  [2H]C([2H])([2H])OCCN1CCN(c2cc(OC)c(Nc3ncc(Br)c(Nc4ccc5nccnc5c4P(C)(C)=O)n3)cc2-c2cnn(C)c2)CC1             3.52
10  COCCN1CCN(c2cc(OC)c(Nc3ncc(Br)c(Nc4ccccc4NS(C)(=O)=O)n3)cc2-c2cnn(C)c2)CC1             2.45
11  COc1cc(N(C)CCN(C)C)c(-c2cnn(C)c2)cc1Nc1ncc(Br)c(Nc2ccc3nccnc3c2P(C)(C)=O)n1             4.03
12  COc1cc(N2CCC3(CCN(C)CC3)CC2)c(-c2cnn(C)c2)cc1Nc1ncc(Br)c(Nc2ccccc2N(C)S(=O)(=O)C2CC2)n1             14.4
